measured_target: mouse serum albumin (mouse, UniProt P07724 25-608)
procedure_text: ProteOn kinetic analysis
quantity_kind: koff (s⁻¹)

P = SEQ ID NO 129 (VHH, also called T at position 30) VHH: DVQLVESGGGVVQPGGSLRLSCAASGFTFTSFGMSWVRQAPGKGPEWVSSISGSGSDTLYADSVKGRFTISRDNSKNTLYLQMNSLRPEDTATYYCTIGGSLSRSGQGTLVTVSS
Q = SEQ ID NO 10 (VHH, also called R at position 30) VHH: EVQLVESGGGVVQPGGSLRLSCAASGFTFRSFGMSWVRQAPGKGPEWVSSISGSGSDTLYADSVKGRFTISRDNSKNTLYLQMNSLRPEDTALYYCTIGGSLSRSSQGTLVTVSS
Qu. Lab note: record which item had the higher koff, P or Q . Respond with the label that goes with your answer.
Ans. P
